Target: CXCR3 (Homo sapiens, UniProt P49682)
Construct: host or cells: CHO-K1 (cAMP Hunter CHOK1 CXCR3 Gi cell line)
Assay: CXCR3 cAMP agonist assay (cAMP Hunter CHOK1 CXCR3 Gi cell line, forskolin-stimulated, HitHunter cAMP detection)
Assay type: cell-based
Conditions: cAMP Hunter CHOK1 CXCR3 Gi cells, 20 μM forskolin, 30 minutes; read-out: Activity (CXCR3 cAMP agonist assay compound EC50)
pEC50: −log10 of the molar value.
ASSAY_METRIC: pEC50

# lookup: pEC50 of Cc1cc(NC(=O)[C@](C)(CCCCN)NC(=O)[C@@H]2Cc3ccccc3CN2C(=O)CCC(=O)c2ccccc2)ccc1Cl [Compound 4-10] 6.60 to 7.30

# lookup: pEC50 of CCN(CC)C(=O)CCC(=O)N1Cc2ccccc2C[C@H]1C(=O)N[C@@H](CCN)C(=O)Nc1ccc(Cl)c(Cl)c1F [Compound 15-42] 6.30 to 6.60

# lookup: pEC50 of Cc1cc(NC(=O)[C@H](CCN2CCNC(=O)C2)NC(=O)[C@@H]2Cc3ccccc3CN2C(=O)CCC(=O)c2ccccc2)ccc1Cl [Compound 17-3] 6.60 to 7.30

# lookup: pEC50 of Cc1cc(NC(=O)[C@H](CCN2CCC(O)CC2)NC(=O)[C@@H]2Cc3ccccc3CN2C(=O)CCC(=O)c2ccccc2)ccc1Cl [Compound 17-1] > 7.30

# lookup: pEC50 of Cc1cc(NC(=O)[C@H](CCN)NC(=O)[C@@H]2Cc3ccccc3CN2C(=O)CCC(=O)N2CCN(C)C[C@@H]2C)ccc1Cl [Compound 12-116] 6.60 to 7.30

# lookup: pEC50 of COc1c(NC(=O)[C@H](CCN)NC(=O)[C@@H]2Cc3ccccc3CN2C(=O)CCC(=O)c2ccccc2)ccc2c1CCC2 [Compound 2-58] 6.60 to 7.30

# lookup: pEC50 of NCC[C@H](NC(=O)[C@@H]1Cc2ccccc2CN1C(=O)CCC(=O)c1ccccc1)C(=O)Nc1c(Cl)cccc1Cl [Compound 14-7] < 6.30

# lookup: pEC50 of NCC[C@H](NC(=O)[C@@H]1Cc2ccccc2CN1C(=O)CCC(=O)N1CCCCC1C(F)F)C(=O)Nc1ccc(Cl)c(Cl)c1F (stereo partly shown) [Compound 15-56] > 7.30

# lookup: pEC50 of CCc1cc(Cl)c(Cl)cc1NC(=O)[C@H](CCN)NC(=O)[C@@H]1Cc2ccccc2CN1C(=O)CCC(=O)c1ccccc1 [Compound 2-30] 6.60 to 7.30

# lookup: pEC50 of NCC[C@H](NC(=O)[C@@H]1Cc2ccccc2CN1C(=O)CCC(=O)c1ccccc1)C(=O)Nc1cc(Cl)ccc1Cl [Compound 14-11] 6.60 to 7.30

# lookup: pEC50 of Cc1c(Cl)ccc(NC(=O)[C@H](CCN)NC(=O)[C@@H]2Cc3ccccc3CN2C(=O)CCC(=O)c2ccccc2)c1Cl [Compound 14-3] > 7.30

# lookup: pEC50 of NCC[C@H](NC(=O)[C@@H]1Cc2ccccc2CN1C(=O)CCC(=O)c1ccccc1)C(=O)Nc1ccc2c(c1Cl)CCC2 [Compound 2-77] 6.60 to 7.30

# lookup: pEC50 of Cc1cccc(NC(=O)[C@H](CCN)NC(=O)[C@@H]2Cc3ccccc3CN2C(=O)CCC(=O)c2ccccc2)c1Cl [Compound 14-6] > 7.30

* * *

Biological target: CXCR3 (Homo sapiens)
Construct: host or cells: CHO-K1 (cAMP Hunter CHOK1 CXCR3 Gi cell line)
Experiment: CXCR3 cAMP agonist assay (cAMP Hunter CHOK1 CXCR3 Gi cell line, forskolin-stimulated, HitHunter cAMP detection)
Format: cell-based
Conditions: cAMP Hunter CHOK1 CXCR3 Gi cells, 20 μM forskolin, 30 minutes; read-out: Activity (CXCR3 cAMP agonist assay compound EC50)
pEC50: −log10 of the molar value.
Answer each item with its documented pEC50.

# lookup: pEC50 of Cc1cc(NC(=O)[C@H](CCN(C(C)C)C(C)C)NC(=O)[C@@H]2Cc3ccccc3CN2C(=O)CCC(=O)c2ccccc2)ccc1Cl [Compound 3-7] > 7.30

# lookup: pEC50 of Cc1cc(NC(=O)[C@H](CCN)NC(=O)[C@@H]2Cc3ccccc3CN2C(=O)CCC(=O)N2CC3CC(C3)C2)ccc1Cl [Compound 12-66] > 7.30

# lookup: pEC50 of CC[C@H]1CN(C(=O)CCC(=O)N2Cc3ccccc3C[C@H]2C(=O)N[C@@H](CCN)C(=O)Nc2ccc(Cl)c(C)c2)CCN1C [Compound 12-150] > 7.30

* * *

Target: CXCR3 (Homo sapiens)
Construct: host or cells: CHO-K1 (cAMP Hunter CHOK1 CXCR3 Gi cell line)
Sequence (P49682 1-368): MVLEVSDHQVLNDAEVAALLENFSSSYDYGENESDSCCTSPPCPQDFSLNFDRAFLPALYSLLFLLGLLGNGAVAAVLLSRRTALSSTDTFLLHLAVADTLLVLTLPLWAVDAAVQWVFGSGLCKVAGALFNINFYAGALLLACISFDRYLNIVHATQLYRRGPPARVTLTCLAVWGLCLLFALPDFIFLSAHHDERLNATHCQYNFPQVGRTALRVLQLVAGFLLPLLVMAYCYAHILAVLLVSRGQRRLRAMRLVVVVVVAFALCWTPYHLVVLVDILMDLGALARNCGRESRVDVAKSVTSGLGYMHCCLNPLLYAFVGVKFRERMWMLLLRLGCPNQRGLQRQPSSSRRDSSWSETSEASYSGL
Assay: CXCR3 cAMP agonist assay (cAMP Hunter CHOK1 CXCR3 Gi cell line, forskolin-stimulated, HitHunter cAMP detection)
Assay type: cell-based
Conditions: cAMP Hunter CHOK1 CXCR3 Gi cells, 20 μM forskolin, 30 minutes; read-out: Activity (CXCR3 cAMP agonist assay compound EC50)
Answer each item with its documented EC50.

# lookup: EC50 of Cc1cc(NC(=O)[C@H](CCN)NC(=O)[C@@H]2Cc3ccccc3CN2C(=O)CCC(=O)N2CCC(F)CC2)ccc1Cl < 50 nM

# lookup: EC50 of Cc1cccc(NC(=O)C2(NC(=O)[C@@H]3Cc4ccccc4CN3C(=O)CCC(=O)c3ccccc3)CCNCC2)c1Cl > 500 nM

# lookup: EC50 of Cc1cc(NC(=O)[C@H](CCCCN)NC(=O)[C@@H]2Cc3ccccc3CN2C(=O)CCC(=O)c2cccc(N(C)C)c2)ccc1Cl 50 to 250 nM

# lookup: EC50 of CC(C)(C)C1CCCCN1C(=O)CCC(=O)N1Cc2ccccc2C[C@H]1C(=O)N[C@@H](CCN)C(=O)Nc1ccc(Cl)c(Cl)c1F (stereo partly shown) 250 to 500 nM

# lookup: EC50 of CN1CCN(CC[C@H](NC(=O)[C@@H]2Cc3ccccc3CN2C(=O)CCC(=O)c2ccccc2)C(=O)Nc2ccc3c(c2)CCC3)CC1 50 to 250 nM

# lookup: EC50 of Cc1cc(NC(=O)[C@H](CCN)NC(=O)[C@@H]2Cc3ccccc3CN2C(=O)CCC(=O)N2CC[C@H](C)C2)ccc1Cl < 50 nM

# lookup: EC50 of NCC[C@H](NC(=O)[C@@H]1Cc2ccccc2CN1C(=O)CCC(=O)c1ccccc1)C(=O)Nc1cccc2c1CCC2 < 50 nM

# lookup: EC50 of Cc1cc(NC(=O)[C@H](CCN)NC(=O)[C@@H]2Cc3ccccc3CN2C(=O)CCC(=O)NCC2CCCCC2)ccc1Cl 50 to 250 nM

# lookup: EC50 of Cc1cc(NC(=O)[C@H](CCN)NC(=O)[C@@H]2Cc3ccccc3CN2C(=O)CCC(=O)N2CCN(C)C[C@H]2C)ccc1Cl < 50 nM

# lookup: EC50 of NCC[C@H](NC(=O)[C@@H]1Cc2ccccc2CN1C(=O)CCC(=O)c1ccccc1)C(=O)Nc1cc(Cl)ccc1F 50 to 250 nM

# lookup: EC50 of NCCCC[C@H](NC(=O)[C@@H]1Cc2ccccc2CN1C(=O)CCC(=O)c1ccccc1)C(=O)Nc1ccc(Cl)cc1 250 to 500 nM

# lookup: EC50 of Cc1cc(Cl)c(Cl)cc1NC(=O)[C@H](CCN)NC(=O)[C@@H]1Cc2ccccc2CN1C(=O)CCC(=O)c1ccccc1 < 50 nM

# lookup: EC50 of NCC[C@H](NC(=O)[C@@H]1Cc2ccccc2CN1C(=O)CCC(=O)N1CCCC(CF)C1)C(=O)Nc1ccc(Cl)c(Cl)c1F (stereo partly shown) < 50 nM

* * *

Molecular target: CXCR3 (Homo sapiens, UniProt P49682)
Construct: host or cells: CHO-K1 (cAMP Hunter CHOK1 CXCR3 Gi cell line)
Assay: CXCR3 cAMP agonist assay (cAMP Hunter CHOK1 CXCR3 Gi cell line, forskolin-stimulated, HitHunter cAMP detection)
Assay type: cell-based
Conditions: cAMP Hunter CHOK1 CXCR3 Gi cells, 20 μM forskolin, 30 minutes; read-out: Activity (CXCR3 cAMP agonist assay compound EC50)
pEC50: −log10 of the molar value.
ASSAY_METRIC: pEC50

# lookup: pEC50 of Cc1cc(NC(=O)[C@H](CCN)NC(=O)[C@@H]2Cc3ccccc3CN2C(=O)CCC(=O)N2CCCC2C(C)C)ccc1Cl (stereo partly shown) [Compound 12-71] > 7.30

# lookup: pEC50 of Cc1cc(NC(=O)[C@H](CCN)NC(=O)[C@@H]2Cc3ccccc3CN2C(=O)CCC(=O)N2CCC[C@@H]2C)ccc1Cl [Compound 12-45] > 7.30

# lookup: pEC50 of Cc1cccc(NC(=O)[C@H](CCN2CCC(O)CC2)NC(=O)[C@@H]2Cc3ccccc3CN2C(=O)CCC(=O)c2ccccc2)c1F [Compound 28-2] > 7.30

# lookup: pEC50 of Cc1cc(NC(=O)[C@H](CCN)NC(=O)[C@@H]2Cc3ccccc3CN2C(=O)CCC(=O)N2CCCC23CCC3)cc(C)c1Cl [Compound 10-10] > 7.30

# lookup: pEC50 of CN(C)CCCC[C@H](NC(=O)[C@@H]1Cc2ccccc2CN1C(=O)CCC(=O)c1ccccc1)C(=O)Nc1ccc(Cl)c(Cl)c1 [Compound 1-31] 6.30 to 6.60

# lookup: pEC50 of CCc1cc(NC(=O)[C@H](CCN)NC(=O)[C@@H]2Cc3ccccc3CN2C(=O)CCC(=O)c2ccccc2)ccc1Cl [Compound 2-55] > 7.30

# lookup: pEC50 of Cc1cc(NC(=O)[C@H](CCN)NC(=O)[C@@H]2Cc3ccccc3CN2C(=O)CCC(=O)N2CC3(CCCCC3)C2)ccc1Cl [Compound 12-7] > 7.30

# lookup: pEC50 of COc1cc(Cl)c(C)cc1NC(=O)[C@H](CCN)NC(=O)[C@@H]1Cc2ccccc2CN1C(=O)CCC(=O)c1ccccc1 [Compound 2-25] > 7.30

# lookup: pEC50 of Cc1cc(NC(=O)[C@H](CCN)NC(=O)[C@@H]2Cc3ccccc3CN2C(=O)CCC(=O)N2CCN(C)C(=O)C2)ccc1Cl [Compound 12-37] 6.60 to 7.30

# lookup: pEC50 of Cc1cc(NC(=O)[C@H](CCN)NC(=O)[C@@H]2Cc3ccccc3CN2C(=O)CCC(=O)N2C(C)CCCC2C)ccc1Cl (stereo partly shown) [Compound 12-41] > 7.30

# lookup: pEC50 of Cc1cc(NC(=O)[C@H](CCCCN)NC(=O)[C@@H]2Cc3ccccc3CN2C(=O)CCC(=O)c2ccccc2)ccc1Cl [Compound 1-14] > 7.30

# lookup: pEC50 of CN1CCN(C(=O)CCC(=O)N2Cc3ccccc3C[C@H]2C(=O)N[C@@H](CCN)C(=O)Nc2ccc(Cl)c(Cl)c2F)CC1 [Compound 10-4] > 7.30

# lookup: pEC50 of NCC[C@H](NC(=O)[C@@H]1Cc2ccccc2CN1C(=O)CCC(=O)c1ccccc1)C(=O)Nc1ccccc1C(F)(F)F [Compound 14-15] 6.30 to 6.60

# lookup: pEC50 of Cc1cc(NC(=O)[C@H](CCN)NC(=O)[C@@H]2Cc3ccccc3CN2C(=O)CCC(=O)N2CCC3CCCCC32)ccc1Cl (stereo partly shown) [Compound 12-95] > 7.30

# lookup: pEC50 of CS(=O)(=O)NCC[C@H](NC(=O)[C@@H]1Cc2ccccc2CN1C(=O)CCC(=O)N1CCCCC1)C(=O)Nc1ccc(Cl)c(Cl)c1F [Compound 32-1] 6.60 to 7.30

# lookup: pEC50 of Cc1cc(NC(=O)C(CC2CC[N+](C)(C)CC2)NC(=O)[C@@H]2Cc3ccccc3CN2C(=O)CCC(=O)c2ccccc2)ccc1Cl (mixture of isomers) [Compound 6-2] 6.60 to 7.30

# lookup: pEC50 of Cc1cc(NC(=O)[C@H](CCN)NC(=O)[C@@H]2Cc3ccccc3CN2C(=O)CCC(=O)N2CCCC(F)(F)C2)ccc1Cl [Compound 12-79] > 7.30

# lookup: pEC50 of Cc1cc(NC(=O)[C@H](CCN)NC(=O)[C@@H]2Cc3ccccc3CN2C(=O)CCC(=O)N2C[C@H](C)C[C@H](C)C2)ccc1Cl [Compound 12-39] > 7.30

# lookup: pEC50 of Cc1cc(NC(=O)[C@H](CCN)NC(=O)[C@@H]2Cc3ccccc3CN2C(=O)CCC(=O)c2ccccc2)c(C)cc1Cl [Compound 2-19] > 7.30

# lookup: pEC50 of CCC(C)(C)NC(=O)CCC(=O)N1Cc2ccccc2C[C@H]1C(=O)N[C@@H](CCN)C(=O)Nc1ccc(Cl)c(C)c1 [Compound 12-92] 6.60 to 7.30

# lookup: pEC50 of Cc1cc(NC(=O)C(CC2CCN(C)CC2)NC(=O)[C@@H]2Cc3ccccc3CN2C(=O)CCC(=O)c2ccccc2)ccc1Cl (mixture of isomers) [Compound 6-1] 6.60 to 7.30

# lookup: pEC50 of CS(=O)(=O)Oc1ccc2c(c1)CN(C(=O)CCC(=O)c1ccccc1)[C@H](C(=O)N[C@@H](CCN)C(=O)Nc1ccc(Cl)c(Cl)c1F)C2 [Compound 29-1] 6.60 to 7.30

# lookup: pEC50 of Cc1cc(NC(=O)[C@H](CCN)NC(=O)[C@@H]2Cc3ccccc3CN2C(=O)CCC(=O)N2CCC(C(F)(F)F)C2)ccc1Cl (stereo partly shown) [Compound 12-52] > 7.30

# lookup: pEC50 of CC1(C)CCCN1C(=O)CCC(=O)N1Cc2cc(F)ccc2C[C@H]1C(=O)N[C@@H](CCN)C(=O)Nc1ccc(Cl)c(Cl)c1F [Compound 15-61] > 7.30

# lookup: pEC50 of Cc1cc(NC(=O)[C@H](CCN)NC(=O)[C@@H]2Cc3ccccc3CN2C(=O)CCC(=O)N2[C@H](C)CCC[C@@H]2C)ccc1Cl [Compound 12-43] > 7.30
